IC50 reference
tested-on: human IL-23R (Homo sapiens, UniProt Q5VWK5)
metric: IC50 (nM)

molecule	tested-on	reading
CNC(=O)[C@H](Cc1cccnc1)NC(=O)[C@H](CCO)NC(=O)[C@@H]1CCC(=O)NCc2ccc(cc2)CC(=O)N[C@@H](CO)C(=O)N[C@H]2CCC(=O)NCC[C@H](NC(=O)[C@H](CCC(N)=O)NC(=O)[C@H](Cc3c[nH]c4ccccc34)NC2=O)C(=O)N[C@@H](Cc2ccc(OCCN)cc2)C(=O)N[C@@H](Cc2ccc3ccccc3c2)C(=O)N[C@@](C)(CC(C)C)C(=O)N1 [Compound 36]	human IL-23R (Homo sapiens, UniProt Q5VWK5)	0.014
CNC(=O)[C@H](Cc1cccnc1)NC(=O)[C@H](CCN)NC(=O)[C@@H]1CCC(=O)NCc2ccc(cc2)CC(=O)N[C@@H](C)C(=O)N[C@H]2CCC(=O)NCC[C@H](NC(=O)[C@H](CCC(N)=O)NC(=O)[C@H](Cc3c[nH]c4ccccc34)NC2=O)C(=O)N[C@@H](CCc2ccccc2)C(=O)N[C@@H](Cc2ccc3ccccc3c2)C(=O)NC(C)(C)C(=O)N1 [Compound 41]	human IL-23R (Homo sapiens, UniProt Q5VWK5)	0.28
CNC(=O)[C@H](Cc1cccnc1)NC(=O)[C@H](CCN)NC(=O)[C@@H]1CCC(=O)NCc2ccc(cc2)CC(=O)N[C@@H](C)C(=O)N[C@H]2CCC(=O)NCC[C@H](NC(=O)[C@H](CCC(N)=O)NC(=O)[C@H](Cc3c[nH]c4ccccc34)NC2=O)C(=O)N[C@@H](Cc2ccc(OCCN)cc2)C(=O)N[C@@H](Cc2c[nH]c3ncccc23)C(=O)NC(C)(C)C(=O)N1 [Compound 44]	human IL-23R (Homo sapiens, UniProt Q5VWK5)	0.27
